biological target: HDAC8 (Homo sapiens (Human))
Sequence (Q9BY41 whole entry): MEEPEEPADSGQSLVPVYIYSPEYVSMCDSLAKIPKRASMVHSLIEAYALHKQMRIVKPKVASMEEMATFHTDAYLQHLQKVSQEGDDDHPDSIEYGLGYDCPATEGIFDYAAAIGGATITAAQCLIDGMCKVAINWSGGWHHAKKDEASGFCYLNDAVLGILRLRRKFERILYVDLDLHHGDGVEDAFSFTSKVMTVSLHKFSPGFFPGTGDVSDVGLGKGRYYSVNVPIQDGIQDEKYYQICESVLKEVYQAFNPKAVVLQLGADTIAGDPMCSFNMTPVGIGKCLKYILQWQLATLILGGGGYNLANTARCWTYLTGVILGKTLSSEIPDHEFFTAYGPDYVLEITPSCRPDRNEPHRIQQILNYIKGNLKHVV
// class assignment uses IC50 with these ranges: low interval (below 2000 nM), middle interval (2000 nM to below 4000 nM), high interval (4000 nM or more)

// known answers, use as guide
>  <molecule>
CC1(C)CC(c2ccccc2)N(c2ccc(-c3noc(C(F)(F)F)n3)cc2F)C1=O (racemic) [Example 312]

>  <group>
high interval

$$$$
>  <molecule>
O=c1ccc2ccc(C(F)(F)F)cc2n1Cc1ccc(-c2noc(C(F)(F)F)n2)cn1 [Example 388]

>  <group>
high interval

$$$$
>  <molecule>
O=C(C1CCS(=O)(=O)CC1)N(Cc1ccc(-c2noc(C(F)(F)F)n2)cn1)c1ccccc1C(F)(F)F [Example 201]

>  <group>
high interval

$$$$
>  <molecule>
FC(F)(F)c1nc(-c2ccc(CNc3cc[nH]n3)nc2)no1 [Example 432]

>  <group>
low interval

$$$$
>  <molecule>
CS(=O)(=O)NC(Cc1ccc(-c2noc(C(F)(F)F)n2)cn1)c1cccc(C(F)(F)F)c1 (stereo not drawn) [Example 178]

>  <group>
middle interval

$$$$

Next, consider the following molecule.
Bin this entry: Fc1cc(COc2ccc3cnccc3n2)ccc1-c1noc(C(F)(F)F)n1 [Example 234] low interval
